test system: Sonic hedgehog protein (Shh); experiment: small-molecule binders of Shh protein, primary screen, biochemical, small-molecule microarray, 635/667 nm fluorescence (AID 1151); details: small-molecule microarray binding, 635 nm fluorescence; higher = more signal;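 also: Shh protein binding to compounds spotted on small-molecule microarray slides; score combines spot fluorescence intensity with signal-to-noise across triplicate slides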
Reported composite z-score by item:
Please give only the number in your answer, with no unit.

input: Any idea what composite z-score was measured for "C=CCOC(=O)[C@H]1[C@@H]2C(=O)O[C@@H](c3ccccc3)[C@@H](c3ccccc3)N2[C@@H](c2ccc(OCCOC(=O)[C@H]3C[C@H]4C(=O)N[C@@H](CC(C)C)C(=O)N4[C@H]3c3ccc(O)cc3)cc2)[C@]12C(=O)Nc1ccc(I)cc12" ?
output: 2.31

input: Please give the result for "C=CCOC(=O)[C@@H]1[C@H]2C(=O)O[C@H](c3ccccc3)[C@H](c3ccccc3)N2[C@H](c2ccc(OCCOC(=O)[C@@H]3C[C@@H]4C(=O)N[C@@H](CCCC[N+](C)(C)C)C(=O)N4[C@@H]3c3cccc(OCCO)c3)cc2)[C@@]12C(=O)Nc1ccc(I)cc12" too.
output: 1.99

input: Quick one: CC(C)C[C@H]1NC(=O)[C@@]23C(=O)N[C@@H](Cc4ccccc4)C2[C@H](C)[C@@]2(C)O[C@H]2C3/C=C/C/C=C\CNC(=O)[C@H](Cc2ccccc2)NC1=O (stereo not given in full)
output: 2.06

input: Likewise for "CN(C)C(=O)[C@]1(Cc2ccccc2CN=[N+]=[N-])N=C(c2ccc(OCCCO)cc2)O[C@@H]1c1ccccc1CN=[N+]=[N-]" ?
output: 1.11

input: Repeat with O=C1OCCC/C=C\[C@H]2OC34C=CCN(c5ccc6ccccc6c5)C(=O)[C@H]3N(CCCCCCO)C(=O)[C@@H]4C12 (stereo not given in full)
output: -0.0305

###

biological target: Calmodulin-1 (Homo sapiens); test: CALM1 binders on microarrays, EGTA buffer, profiling panel, biochemical, small-molecule microarray, Cy5-labelled CALM1 (AID 1111); settings: Cy5-CALM1 binding fluorescence, higher = more signal;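 also: labelled calmodulin applied in Tris saline Tween buffer holding calcium plus EGTA and DTT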
Below, each entry is listed alongside its reported composite z-score.
// no unit, no text: just the number

compound | target-or-system | composite z-score
CCOC(=O)C1=CCC(c2ccccc2)N(S(=O)(=O)CC[Si](C)(C)C)C1 (centres undefined) | Calmodulin-1 (Homo sapiens) | -0.0436
CC(=O)NCCCC[C@@H]1NC(=O)[C@@H]2C[C@H](C(=O)NCCCCN(C)C)[C@H](c3cccc(OCCO)c3)N2C1=O | Calmodulin-1 (Homo sapiens) | 0.017
C=CC[C@]12N=C(c3ccc(OCCCO)cc3)O[C@H]1c1ccccc1N(Cc1ccccc1)C2=O | Calmodulin-1 (Homo sapiens) | -0.162

Here is another compound to look at.
input: Tell me the measured composite z-score of "COCCCN1C(=O)[C@@]2(Cc3ccccc31)c1ccccc1C(=O)N(Cc1ccccc1C(F)(F)F)[C@H]2c1ccc(CO)cc1" , please.
output: -0.47

###

target: Torsin-1A (Homo sapiens) (UniProt O14656); test: torsin A binders from cell lysate, primary screen, small-molecule microarray, wild-type, 635/667 nm (AID 1149); conditions: COS7 hTOR1A-WT lysate, 635 nm fluorescence, higher = more signal
Sequence (O14656 whole entry, looked up): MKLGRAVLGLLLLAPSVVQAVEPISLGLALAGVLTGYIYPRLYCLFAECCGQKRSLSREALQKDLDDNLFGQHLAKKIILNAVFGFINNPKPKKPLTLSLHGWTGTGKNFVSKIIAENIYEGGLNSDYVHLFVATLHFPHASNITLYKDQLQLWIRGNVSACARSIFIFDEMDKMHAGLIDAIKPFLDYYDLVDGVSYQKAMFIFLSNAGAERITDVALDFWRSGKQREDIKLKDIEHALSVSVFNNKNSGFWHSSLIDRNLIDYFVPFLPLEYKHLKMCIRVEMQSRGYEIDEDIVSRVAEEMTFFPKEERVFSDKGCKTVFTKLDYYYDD
measure-name: composite z-score
Give the value as a plain number.

input: State the recorded composite z-score for this entry: "CN(C)CCCCCCNC(=O)[C@@H]1C[C@@H]2C(=O)N[C@@H](CCCCN)C(=O)N2[C@@H]1c1cccc(OCCO)c1"
output: 3.29

input: Same lookup for "COc1ccc(CCN2C(=O)[C@@]3(Cc4ccccc42)c2ccccc2C(=O)N(Cc2ccccc2C(F)(F)F)[C@H]3c2ccc(CO)cc2)cc1" , please.
output: 0.208

input: Same question for "O=C(O)[C@@]1(CCS(=O)(=O)c2ccccc2)COC(c2ccc(OCCCO)cc2)=N1" please.
output: -0.792

###

test: basal MM1S mitochondrial membrane potential changes, profiling panel, cell-based, JC-1 fluorescence, 24 h, 100 nL compound (AID 1170); conditions: higher = more signal; also: test concentration not given here
We begin with a simple list: items and their reported z-score.
Would you mind answering with just the numeric figure?

line-notation | measured-result
COCCOC(=O)N1C(=O)[C@@]2(c3cc(C#CC4=CCCCC4)ccc31)[C@H](c1ccc(O)cc1)N1[C@H](c3ccccc3)[C@H](c3ccccc3)OC(=O)[C@H]1[C@@H]2C(N)=O | -1.19
O=C1O[C@@H](c2ccccc2)[C@@H](c2ccccc2)N2[C@@H](c3ccccc3OCCO)[C@]3(C(=O)Nc4ccc(C#CC5=CCCCC5)cc43)[C@@H](C(=O)Nc3nc4ccccc4s3)[C@H]12 | -1.42

Turning now to a further record.
input: Which z-score is listed for "COCCOC(=O)N1C(=O)[C@@]2(c3cc(C#CCCO)ccc31)[C@H](C(=O)N1CCc3cc(OC)c(OC)cc3C1)[C@H]1C(=O)O[C@H](c3ccccc3)[C@H](c3ccccc3)N1[C@@H]2c1ccc(O)cc1" ?
output: -0.546

###

Listing: composite z-score of selected molecules
experiment: small-molecule binders of probe aNOTCH2, primary screen, biochemical, small-molecule microarray, 635/667 nm fluorescence (AID 1121); settings: higher = more signal;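 also: score merges feature fluorescence read at 667 nm with its signal to noise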
Keep the answer to the number alone.

A selection of reference data follows.
molecule | composite z-score
CCc1oc(CC[C@@H](CO)NC(=O)NCCn2cc(C3(O)CCCCC3)nn2)c(C(=O)OC)c1C(=O)OC | -0.0813
[N-]=[N+]=Nc1ccccc1C[C@@]1(C(=O)NCCN2CCOCC2)N=C(c2ccc(OCCCO)cc2)O[C@@H]1c1ccccc1 | -0.221
O=C1OCCC/C=C\[C@H]2OC34C=CCN(c5ccc6ccccc6c5)C(=O)[C@H]3N(CCCCCCO)C(=O)[C@@H]4C12 (some centres not stated) | -0.163
O=C1O[C@H](c2ccccc2)[C@H](c2ccccc2)N2[C@H]1[C@@H](C(=O)O)[C@]1(C(=O)Nc3ccc(C#CCCO)cc31)[C@H]2c1ccc(O)cc1 | -0.0467
COc1ccc(NN2C(C(O)c3ccc([N+](=O)[O-])cc3)C=CC3C(=O)N(C4CCCCC4)C(=O)C32)cc1 (configuration not stated) | -0.115
CCOC(=O)C[C@H]1[C@H](OC(=O)c2cc3ccccc3oc2=O)[C@@H](NC(=O)Cc2ccc(OC)cc2)c2cc(OCCCO)ccc2N1C(=O)c1ccccc1 | -0.0986

Here's the next entry for you.
input: Which value of composite z-score has been reported for "COCCOC(=O)N1C(=O)[C@@]2(c3cc(C#CC4(O)CCCCCC4)ccc31)[C@H](c1ccc(O)cc1)N1[C@H](c3ccccc3)[C@H](c3ccccc3)OC(=O)[C@H]1[C@@H]2C(=O)Nc1nc2ccccc2s1" in the records?
output: 0.203

###

test: modulators of HCV replicon luciferase signal, primary screen, HCV replication inhibitor project, Huh7 cells, luciferase reporter (AID 1109); conditions: 48 h, higher = more signal;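 also: huh7 hepatoma cells harbouring a luciferase neomycin HCV replicon reporter; luciferase luminescence as measure of HCV replicon replication; test concentration not given here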
measure-name: z-score

# annotated cases, reported z-score shown
molecule | measured-result
COC(=O)[C@@]1(Cc2ccc(OC)cc2)[C@H]2c3cc(C(=O)N(C)C)n(Cc4cccc5ccccc45)c3C[C@H]2CN1C(=O)c1ccccc1 | -2.35
CCCCc1cn(C[C@H](Cc2ccccc2)NC(=O)N[C@H](CO)CCc2oc(C(C)=O)c(C(=O)OC)c2C(=O)OC)nn1 | -0.639
CN(C)CCCCCCNC(=O)[C@@H]1C[C@@H]2C(=O)N[C@@H](CCCCN)C(=O)N2[C@@H]1c1cccc(OCCO)c1 | -0.0282
CCOC(=O)C[C@H]1[C@H](OC(=O)c2cc3ccccc3oc2=O)[C@@H](NC(=O)Cc2ccc(OC)cc2)c2cc(OCCCO)ccc2N1C(=O)c1ccccc1 | -0.273

input: # query: z-score of entry CCCCN1CC=CC23O[C@@H]4/C=C\CCC(C)OC(=O)C4[C@H]2C(=O)N(CCCCCO)[C@@H]3C1=O (stereo not given in full)
output: -0.275

input: // repeat for "COc1ccc([C@H]2C[C@H]3C(Br)=C[C@@H]2C(=O)[C@]32CO2)cc1" and report
output: -2.46

input: What do we get for "COCCCN1C(=O)[C@@]2(Cc3ccccc31)c1ccccc1C(=O)N(Cc1ccccc1C(F)(F)F)[C@H]2c1ccc(CO)cc1" ?
output: -0.311

input: Try the molecule "C=CCOC(=O)[C@@H]1[C@H]2C(=O)O[C@H](c3ccccc3)[C@H](c3ccccc3)N2[C@H](c2ccc(OCCOC(=O)[C@@H]3C[C@@H]4C(=O)N[C@@H](Cc5ccccc5)C(=O)N4[C@@H]3c3ccc(O)cc3)cc2)[C@@]12C(=O)Nc1ccc(I)cc12"
output: -0.726

input: What do we get for CCCCCC1=C2CNC(CCC)(C(=O)OC)C=C2C(C)C1=O (stereo not given) ?
output: -0.183

input: Note, next up: CCOc1cc(C(O)C2C=CC3C(=O)N(c4ccccc4)C(=O)C3N2Nc2ccccc2)ccc1O (stereo not given)
output: -0.0374

input: // repeat for CC(=O)n1cc(C(O)C2C=CC3C(=O)N(C)C(=O)C3N2Nc2ccccc2)c2ccccc21 (stereo not given) and report
output: -0.581

input: Lookup "COc1ccc([C@H]2OC[C@@H]3CC4(CC=CC4)C(=O)N32)cc1"
output: 0.0751

input: Next up: "COc1ccc([Si](C)(C)[C@H]2[C@H](CCO)O[C@@]3(C(=O)N(Cc4ccc(N5C(=O)COc6ccccc65)cc4)c4ccccc43)[C@@H]2C)cc1"
output: -4.92

input: How about this molecule: CN1C2C=C(CCCO)C(C3C(=O)N(C(N)=O)C(=O)C32)C1c1ccc(CN2CCCC2)cc1 (stereo not given)
output: -0.149

input: Then what about the molecule "COC(=O)c1c(CC[C@@H](CO)NC(=O)N[C@@H](C)Cn2cc(C3(O)CCCCC3)nn2)oc(C(C)=O)c1C(=O)OC" ?
output: -0.418
